# System: 966289-007-R4-J1-PDC complex spheroid viability
# EXPERIMENTAL PROTOCOL: Anticancer human tumor 966289-007-R4-J1-PDC patient-derived pancreatic adenocarcinoma cell line growth inhibition [RAS]
# TEST CONDITIONS: second compound 0.3 µM; first compound 0.316 µM; hits give low values
EXPERIMENTAL ENDPOINT: viability, T/C (%)
// units = %; emit number, no label

C=CC(=O)N1CCN(c2nc(OCC3CCCN3C)nc3c(F)c(-c4nc(N)cc(C)c4C(F)(F)F)c(Cl)cc23)C(C)C1 (stereo not drawn) + CCn1c(-c2cccnc2C(C)OC)c2c3cc(ccc31)N1CCOC(CC(NC(=O)C(C(C)C)N(C)C(=O)C3(F)CCN(C(=O)C#CC(C)(C)N(C)C)CC3)C(=O)N3CCCC(N3)C(=O)OCC(C)(C)C2)C1 ... 127
CCC(CC)c1cc(NC2CCC(N)C2)n2nccc2n1 (stereo not drawn) + CCn1c(-c2cc(N3CCN(C)CC3)cnc2C(C)OC)c2c3cc(ccc31)-c1csc(n1)CC(NC(=O)C1CC1C)C(=O)N1CCCC(N1)C(=O)OCC(C)(C)C2 ... 116

Note to self: viability, T/C recorded for Cc1nc(N2CCC3(CC2)COC(C)C3N)c(CO)nc1Sc1ccnc(N)c1Cl (stereo not drawn) + CCn1c(-c2cccnc2C(C)OC)c2c3cc(ccc31)N1CCOC(CC(NC(=O)C(C(C)C)N(C)C(=O)C3(F)CCN(C(=O)C#CC(C)(C)N(C)C)CC3)C(=O)N3CCCC(N3)C(=O)OCC(C)(C)C2)C1 was 93.4

---

We begin with a simple list: items and their reported viability, T/C.
# Test system: 966289-007-R4-J1-PDC complex spheroid viability
# EXPERIMENTAL PROTOCOL: Anticancer human tumor 966289-007-R4-J1-PDC cell line growth inhibition [RAS];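 also: spheroids exposed to agents for one week before readout; percent viability relative to DMSO vehicle control wells as 100%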
# TEST CONDITIONS: second compound 0.0316 µM; first compound 0.316 µM; hits give low values

Example results:
C[C@@H](NC(=O)c1ncnc(N)c1Cl)c1ncc(C(=O)Nc2cc(C(F)(F)F)c(Cl)cn2)s1 + C=CC(=O)N1CCN(c2nc(OCC3CCCN3C)nc3c(F)c(-c4nc(N)cc(C)c4C(F)(F)F)c(Cl)cc23)C(C)C1 ... 118%
NC1c2ccccc2OC12CCN(c1cnc3c(N4CCCc5ncccc54)n[nH]c3n1)CC2 (stereo not drawn) + C=CC(=O)N1CCN(c2nc(OCC3CCCN3C)nc3c(F)c(-c4nc(N)cc(C)c4C(F)(F)F)c(Cl)cc23)C(C)C1 ... 133%

Now for another entry.
In plain terms, C[C@@H](NC(=O)c1ncnc(N)c1Cl)c1ncc(C(=O)Nc2cc(C(F)(F)F)c(Cl)cn2)s1 + C#Cc1c(F)ccc2cc(O)cc(-c3ncc4c(N5CC6CCC(C5)N6)nc(OCC56CCCN5CC(F)C6)nc4c3F)c12 has a documented viability, T/C of 130%

---

# Tested on: 966289-007-R4-J1-PDC complex spheroid viability
# EXPERIMENTAL PROTOCOL: Anticancer human tumor 966289-007-R4-J1-PDC cell line growth inhibition [RAS];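 also: spheroids exposed to agents for one week before readout; percent viability relative to DMSO vehicle control wells as 100%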
# TEST CONDITIONS: second compound 0.01 µM; first compound 0.316 µM; hits give low values
EXPERIMENTAL ENDPOINT: viability, T/C (%)
Write the value in % as a bare number.

Some solved cases for reference:
CCN1CCN(Cc2ccc(Nc3ncc(F)c(-c4cc(F)c5nc(C)n(C(C)C)c5c4)n3)nc2)CC1 + C=CC(=O)N1CCN(c2nc(OCC3CCCN3C)nc3c(F)c(-c4nc(N)cc(C)c4C(F)(F)F)c(Cl)cc23)C(C)C1 ... 99.1
O=C(c1ccc(F)c(F)c1Nc1ccc(I)cc1F)N1CC(O)([C@@H]2CCCCN2)C1 + C=CC(=O)N1CCN(c2nc(OCC3CCCN3C)nc3c(F)c(-c4nc(N)cc(C)c4C(F)(F)F)c(Cl)cc23)C(C)C1 ... 62.9
CC(=O)OC12COC1CC(O)C1(C)C(=O)C(O)C3=C(C)C(OC(=O)C(O)C(NC(=O)OC(C)(C)C)c4ccccc4)CC(O)(C(OC(=O)c4ccccc4)C21)C3(C)C (configuration not stated) + C=CC(=O)N1CCN(c2nc(OCC3CCCN3C)nc3c(F)c(-c4nc(N)cc(C)c4C(F)(F)F)c(Cl)cc23)C(C)C1 ... 14.8

Query CCC(CC)c1cc(NC2CCC(N)C2)n2nccc2n1 (configuration not stated) + C=CC(=O)N1CCN(c2nc(OCC3CCCN3C)nc3c(F)c(-c4nc(N)cc(C)c4C(F)(F)F)c(Cl)cc23)C(C)C1 yields viability, T/C of 101

Recorded result, Cc1nc(N2CCC3(CC2)COC(C)C3N)c(CO)nc1Sc1ccnc(N)c1Cl (configuration not stated) + C=CC(=O)N1CCN(c2nc(OCC3CCCN3C)nc3c(F)c(-c4nc(N)cc(C)c4C(F)(F)F)c(Cl)cc23)C(C)C1 , viability, T/C: 109

CC(Nc1ccc2c(c1)OCCn1cc(N3C(=O)OCC3C(F)F)nc1-2)C(N)=O (configuration not stated) + C=CC(=O)N1CCN(c2nc(OCC3CCCN3C)nc3c(F)c(-c4nc(N)cc(C)c4C(F)(F)F)c(Cl)cc23)C(C)C1 yielded viability, T/C of 115

Lab note: NC1c2ccccc2OC12CCN(c1cnc3c(N4CCCc5ncccc54)n[nH]c3n1)CC2 (configuration not stated) + C=CC(=O)N1CCN(c2nc(OCC3CCCN3C)nc3c(F)c(-c4nc(N)cc(C)c4C(F)(F)F)c(Cl)cc23)C(C)C1 gave viability, T/C of 104
